- System: MeV (Edm)
- Method summary: microbe, parasite or virus in culture
- Type: cell-based
- Experimental parameters: Measles morbillivirus, Vero
pIC50: −log10 of the molar value.

{"Molecule": "CC1(C)Cc2cccc(OCC(=O)Nc3nc4ccccc4s3)c2O1 [compound 1]", "System under test": "MeV (Edm)", "pIC50": 6.60}

###

- Method summary: Cell viability (cytotoxicity), NCI-H358
- Type: cell-based
- Experimental parameters: human, NCI-H358 cells

{"Smiles structure": "CC1(C)Cc2cccc(OCC(=O)Nc3nc4ccccc4s3)c2O1", "Measurement unit": "µM", "CC50": 50}

###

A collection of compounds and their measured CC50
- Method summary: Cell viability (cytotoxicity), Vero
- Type: cell-based
- Experimental parameters: monkey, Vero cells

{"Compound": "CN(C(=O)COc1cccc2c1OC(C)(C)C2)c1nc2c(s1)CCCC2 [compound 2]", "Measurement unit": "µM", "CC50": 52}
{"Compound": "CC1(C)Cc2cccc(OCC(=O)Nc3nc4ccccc4s3)c2O1 [compound 1]", "Measurement unit": "µM", "CC50": 46}

###

- Tested on: RSV-GFP
- Method summary: microbe, parasite or virus in culture
- Type: cell-based, respiratory syncytial virus
- Experimental parameters: human respiratory syncytial virus, HEp-2, RSV, HEp-2 cells, plaque reduction
pIC50: −log10 of the molar value.

{"Molecule": "CN(C(=O)COc1cccc2c1OC(C)(C)C2)c1nc2c(s1)CCCC2 [compound 2]", "pIC50": 7.51}

###

- Method summary: Cell viability (cytotoxicity), MDCK
- Assay type: cell-based, Canine
- Experimental parameters: dog, MDCK cells
A collection of compounds and their measured CC50

{"Smiles structure": "CN(C(=O)COc1cccc2c1OC(C)(C)C2)c1nc2c(s1)CCCC2", "CC50 / µM": 87}
{"Smiles structure": "CC1(C)Cc2cccc(OCC(=O)Nc3nc4ccccc4s3)c2O1", "CC50 / µM": 99}

###

- Method summary: Cell viability (cytotoxicity), Vero-cNectin-4
- Type: cell-based
- Experimental parameters: monkey, Vero-cNectin-4 cells
Test readout: CC50

{"Smiles structure": "CC1(C)Cc2cccc(OCC(=O)Nc3nc4ccccc4s3)c2O1", "Experimental value": "43 µM"}

###

- Test system: PIV-5^neon/nLucP
- Method summary: microbe, parasite or virus in culture
- Assay type: cell-based, parainfluenza virus type 5
- Experimental parameters: PIV-5, Vero cells

{"Smiles structure": "CC1(C)Cc2cccc(OCC(=O)Nc3nc4ccccc4s3)c2O1", "System under test": "PIV-5^neon/nLucP", "Measurement unit": "µM", "IC50": 7.2}

###

- Method summary: Cell viability (cytotoxicity), Bsr-T7
- Assay type: cell-based
- Experimental parameters: hamster, Bsr-T7 cells
Test readout: CC50 (µM)

{"Smiles structure": "CC1(C)Cc2cccc(OCC(=O)Nc3nc4ccccc4s3)c2O1", "Experimental value": 50}

###

- Method summary: Cell viability (cytotoxicity), PGSA745-EFNB2
- Assay type: cell-based
- Experimental parameters: hamster, PGSA745-EFNB2 cells

{"Smiles structure": "CN(C(=O)COc1cccc2c1OC(C)(C)C2)c1nc2c(s1)CCCC2", "CC50, µM": 80}

###

- Method summary: Cell viability (cytotoxicity), HEp-2
- Type: cell-based
- Experimental parameters: human, HEp-2 cells
A collection of compounds and their measured CC50
Test readout: CC50 (µM)

{"Compound": "CN(C(=O)COc1cccc2c1OC(C)(C)C2)c1nc2c(s1)CCCC2 [compound 2]", "Measurement unit": "µM", "Experimental value": 51}
{"Compound": "CC1(C)Cc2cccc(OCC(=O)Nc3nc4ccccc4s3)c2O1 [compound 1]", "Measurement unit": "µM", "Experimental value": 110}
